# assayTarget: Proteasome component C5 (Homo sapiens) (UniProt P20618)
# experimentNotes: Inhibition of 26S proteasome beta 1 in human HEK293 cell lysate assessed as residual activity at 1.5 uM after 1 hr
# Format: cell-free
endpoint: Activity (%)
Only the number, expressed in %, is required.

Example entries and their recorded answers appear below.
CC(C)C[C@H](NC(=O)[C@H](Cc1cc(C(F)(F)F)cc(C(F)(F)F)c1)NC(=O)c1cnccn1)B1OC2C[C@@H]3C[C@@H](C3(C)C)[C@]2(C)O1 (stereo partly drawn) :: 3.1
CC(C)C[C@H](NC(=O)[C@H](Cc1ccccc1)NC(=O)[C@H](Cc1c(F)c(F)c(F)c(F)c1F)NC(=O)[C@H](Cc1ccccc1)N=[N+]=[N-])C(=O)[C@@]1(C)CO1 :: 115

Now consider a different compound.
Problem: Identify measured Activity associated with CC(C)C[C@H](NC(=O)[C@H](Cc1cc(C(F)(F)F)cc(C(F)(F)F)c1)NC(=O)[C@H](Cc1ccccc1)NC(=O)[C@H](Cc1ccccc1)N=[N+]=[N-])C(=O)[C@@]1(C)CO1
Solution: 82.8

* * *

Activity reference
# assayTarget: Proteasome component C5 (Homo sapiens) (UniProt P20618)
# experimentNotes: Inhibition of 26S proteasome beta 1 in human HEK293 cell lysate assessed as residual activity at 1.5 uM after 1 hr
# Assay type: cell-free
Lab book: enter the figure in %, no units written.

Problem: Write down measured Activity (Proteasome component C5 (Homo sapiens) (UniProt P20618)) for this compound. CC(C)C[C@H](NC(=O)[C@H](Cc1c(F)c(F)c(F)c(F)c1F)NC(=O)[C@H](Cc1ccccc1)NC(=O)[C@H](Cc1ccccc1)N=[N+]=[N-])C(=O)[C@@]1(C)CO1
Solution: 90.1

Problem: Provide measured Activity on Proteasome component C5 (Homo sapiens) (UniProt P20618) for CC(C)C[C@H](NC(=O)[C@H](Cc1ccccc1)NC(=O)[C@H](Cc1ccccc1)NC(=O)[C@H](Cc1ccccc1)N=[N+]=[N-])C(=O)[C@@]1(C)CO1 please.
Solution: 69.9

Problem: Output reported Activity of the compound CC(C)C[C@H](NC(=O)[C@H](Cc1c(F)c(F)c(F)c(F)c1F)NC(=O)c1cnccn1)B1OC2C[C@@H]3C[C@@H](C3(C)C)[C@]2(C)O1 (some centres undefined) on Proteasome component C5 (Homo sapiens) (UniProt P20618).
Solution: 12

Problem: With Proteasome component C5 (Homo sapiens) (UniProt P20618) as the test system, provide measured Activity for this compound: CC(C)C[C@H](NC(=O)[C@H](Cc1ccccc1)NC(=O)[C@H](Cc1cc(C(F)(F)F)cc(C(F)(F)F)c1)NC(=O)[C@H](Cc1ccccc1)N=[N+]=[N-])C(=O)[C@@]1(C)CO1
Solution: 104

* * *

# assayTarget: Proteasome component C5 (Homo sapiens)
# Sequence (whole entry): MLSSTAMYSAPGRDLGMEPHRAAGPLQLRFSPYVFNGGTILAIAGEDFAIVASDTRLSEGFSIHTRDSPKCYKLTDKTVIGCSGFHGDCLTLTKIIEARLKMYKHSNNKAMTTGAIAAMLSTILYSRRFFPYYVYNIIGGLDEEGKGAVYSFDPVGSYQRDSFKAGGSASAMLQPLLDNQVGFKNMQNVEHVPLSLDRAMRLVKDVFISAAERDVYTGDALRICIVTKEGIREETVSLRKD
# experimentNotes: Inhibition of 26S proteasome beta 1 in human HEK293 cell lysate assessed as residual activity at 13.5 uM after 1 hr
# Type: cell-free
endpoint: Activity

Please review the entries below; each comes with its answer.
CC(C)C[C@H](NC(=O)[C@H](Cc1ccccc1)NC(=O)[C@H](Cc1ccccc1)NC(=O)[C@H](Cc1ccccc1)N=[N+]=[N-])C(=O)[C@@]1(C)CO1 :: 58.3%
CC(C)C[C@H](NC(=O)[C@H](Cc1c(F)c(F)c(F)c(F)c1F)NC(=O)c1cnccn1)B1OC2C[C@@H]3C[C@@H](C3(C)C)[C@]2(C)O1 (some centres undefined) :: 1.3%
CC(C)C[C@H](NC(=O)[C@H](Cc1ccccc1)NC(=O)[C@H](Cc1cc(C(F)(F)F)cc(C(F)(F)F)c1)NC(=O)[C@H](Cc1ccccc1)N=[N+]=[N-])C(=O)[C@@]1(C)CO1 :: 61.3%

Note: attention shifts to another entry.
Problem: Identify measured Activity corresponding to CC(C)C[C@H](NC(=O)[C@H](Cc1c(F)c(F)c(F)c(F)c1F)NC(=O)[C@H](Cc1ccccc1)NC(=O)[C@H](Cc1ccccc1)N=[N+]=[N-])C(=O)[C@@]1(C)CO1
Solution: 71.2%
